Assay: GI50 given in Tables 4-6 (test not described)
Assay type: cell-based
Details: cell line not stated
Provide the reported GI50 of each item.

Sample "Cc1c(-c2ccccc2F)[nH]c2ccc(CNC(=O)c3cc[nH]n3)cc12" — what was its GI50?
> 100 µM

Subsequent entry: "Cc1c(-c2ccc(F)cc2)[nH]c2ccc(CNC(=O)c3ccc(CO)o3)cc12"
> 100 µM

Subsequent entry: "Cc1c(-c2ccccc2F)[nH]c2ccc(CNC(=O)CCc3cnccn3)cc12"
> 100 µM

Subsequent entry: "Cc1cccc2c(-c3cccc(C(N)=O)n3)c[nH]c12"
> 100 µM

Subsequent entry: "CNC(=O)c1ccc(OC)c(-c2c[nH]c3ccc(C)cc23)c1"
> 100 µM

Subsequent entry: "Cc1nsc(NC(=O)N2CCC(Cn3ccnc3C)CC2)n1"
> 100 µM

Subsequent entry: "Cc1nsc(NC(=O)N2CCC(Sc3ccccc3C)CC2)n1"
> 100 µM

Subsequent entry: "COc1cc(-c2ccc(C)s2)cc2c1OCCN(c1nc(C(N)=O)cs1)C2"
> 100 µM

Subsequent entry: "CCc1[nH]c2c(CNC(=O)CCCc3cn[nH]c3)cc(F)cc2c1C"
> 100 µM

* * *

Provide the reported IC50 of each item.
Molecular target: AR-TIF2 PPI (Homo sapiens, UniProt P10275)
Construct: AR-LBD residues (662-919) were incorporated into one biosensor; expressed in transfected cells; host or cells: U-2 OS osteosarcoma cells, coinfected with recombinant adenoviruses
Sequence (P10275 662-919): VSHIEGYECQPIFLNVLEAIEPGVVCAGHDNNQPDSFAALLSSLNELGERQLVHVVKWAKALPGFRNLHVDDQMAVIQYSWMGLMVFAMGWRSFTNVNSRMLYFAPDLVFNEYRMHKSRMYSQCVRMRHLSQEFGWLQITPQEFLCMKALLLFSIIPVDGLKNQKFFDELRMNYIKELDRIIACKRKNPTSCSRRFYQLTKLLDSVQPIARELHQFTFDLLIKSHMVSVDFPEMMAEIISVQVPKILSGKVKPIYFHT
Experiment: AR-TIF2 PPIB HCS assay: inhibition of DHT-induced AR-TIF2 PPI formation (compound then DHT)
Format: cell-based
Settings: compound then DHT; U-2 OS cells; read-out: C then D IC50

Recorded IC50 for "Cc1nsc(NC(=O)N2CCC(Cn3ccnc3C)CC2)n1" with AR-TIF2 PPI (Homo sapiens, UniProt P10275), please?
> 100 µM

Subsequent entry: "Cc1nsc(NC(=O)N2CCC(Cn3ccnc3)CC2)n1"
> 100 µM

Subsequent entry: "Cc1nsc(NC(=O)N2CCC(F)CC2)n1"
> 100 µM

Subsequent entry: "CNC(=O)c1ccc(OC)c(-c2c[nH]c3ccc(C)cc23)c1"
> 100 µM

Subsequent entry: "Cc1nsc(NC(=O)N2CCC(CN3CCCC3=O)CC2)n1"
> 100 µM

Subsequent entry: "Cc1ccccc1-c1cc(O)c2c(c1)CN(c1cc(N)ncn1)CCO2"
> 100 µM
